- TARGET OR SYSTEM: Adrenergic receptor alpha-2 (Rattus norvegicus, UniProt P22086+P19328+P22909)
- ASSAY OVERVIEW: Binding affinity towards alpha-2 adrenergic receptor in rat cortex membrane using [3H]rauwolscine radioligand
- Assay type: cell membranes
OBSERVATION TYPE: log10 of Ki (log10 of the value in nM)
Recall that a logarithmic scale is used here: each number is log10 of Ki in nM.

Enquiry: Item under review: COc1ccccc1OCCN1CCN(c2cnn(CCCCCCCN3CCN(c4ccccc4Cl)CC3)c(=O)c2Cl)CC1 . Reported log10 of Ki?
Return: 0.87

Enquiry: Please do the same for COc1ccccc1OCCN1CCN(c2ccc(=O)n(CCCN3CCN(c4ccccc4Cl)CC3)n2)CC1 as well.
Return: 2.50

Enquiry: Also COc1ccccc1OCCN1CCN(c2ccc(=O)n(CCCCN3CCN(c4ccccc4Cl)CC3)n2)CC1 , if possible.
Return: 1.84

Enquiry: Then this compound: COc1ccccc1OCCN1CCN(c2ccc(=O)n(CCN3CCN(c4ccccc4OC)CC3)n2)CC1
Return: 3.10

Enquiry: Now consider O=C(c1ccco1)N1CCN(c2cnn(CCN3CCN(c4ccccc4Cl)CC3)c(=O)c2Cl)CC1 .
Return: 2.18

Enquiry: Then what about the compound COc1ccccc1N1CCN(CCCCn2nc(N3CCN(C(=O)c4ccco4)CC3)ccc2=O)CC1 ?
Return: 2.90

Enquiry: Same for COc1ccccc1OCCN1CCN(c2cnn(CCCCCCN3CCN(c4ccccc4OC)CC3)c(=O)c2Cl)CC1
Return: 0.54

Enquiry: Another compound: O=C(c1ccco1)N1CCN(c2ccc(=O)n(CCCCCCN3CCN(c4ccccc4Cl)CC3)n2)CC1
Return: 1.37

Enquiry: Input COc1ccccc1OCCN1CCN(c2cnn(CCCN3CCN(c4ccccc4Cl)CC3)c(=O)c2Cl)CC1
Return: 2.34

Enquiry: Could you do the same for COc1ccccc1N1CCN(CCCCCn2nc(N3CCN(C(=O)c4ccco4)CC3)ccc2=O)CC1 , please?
Return: 2.41

Enquiry: Another compound: COc1ccccc1OCCN1CCN(c2cnn(CCCCCN3CCN(c4ccccc4Cl)CC3)c(=O)c2Cl)CC1
Return: 1.46

Enquiry: Again, but for COc1ccccc1OCCN1CCN(c2cnn(CCCCN3CCN(c4ccccc4OC)CC3)c(=O)c2Cl)CC1
Return: 2.36

Enquiry: Now give it for COc1ccccc1N1CCN(CCCCCCn2ncc(N3CCN(C(=O)c4ccco4)CC3)c(Cl)c2=O)CC1 too.
Return: 1.39

Enquiry: Please do the same for COc1ccccc1OCCN1CCN(c2cnn(CCCCCCCCN3CCN(c4ccccc4OC)CC3)c(=O)c2Cl)CC1 as well.
Return: 1.36

Enquiry: Could you do the same for COc1ccccc1N1CCN(CCCCCCCn2ncc(N3CCN(C(=O)c4ccco4)CC3)c(Cl)c2=O)CC1 , please?
Return: 2.72

Enquiry: // repeat for COc1ccccc1OCCN1CCN(c2ccc(=O)n(CCCCCCCN3CCN(c4ccccc4Cl)CC3)n2)CC1 and report
Return: 2.14

Enquiry: How about COc1ccccc1N1CCN(CCCCn2ncc(N3CCN(C(=O)c4ccco4)CC3)c(Cl)c2=O)CC1 ?
Return: 2.94

Enquiry: Similarly, COc1ccccc1N1CCN(CCCn2nc(N3CCN(C(=O)c4ccco4)CC3)ccc2=O)CC1 ?
Return: 2.80

The measurements presented in this section are drawn from ChEMBL document CHEMBL1134688.
